Target desc: T1, AAV8 (adeno-associated virus 8)
T1 construct: also called adeno-associated virus serotype 8
Test name: SPR, AAV amine-coupled to CM5 chip;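 further: nanobodies flowed as analyte at seven concentrations spanning 1–100 nM over immobilized AAV (500–800 RU), kinetic constants derived by fitting the binding curves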
Assay endpoint: kon (M⁻¹ s⁻¹)
# number only, unit M⁻¹ s⁻¹ dropped from output

## Task kon lookup needed for A4-084 (VHH) VHH: VQLQESGGGLVQPGGSLKLSCAASGSRFSLNTMGWYRQAPRKQREFVAAVTRGGNTNYGDFVKGRFTISRDNAKNTVYLQMNSLRPEDTAVYYCHVDELRESSWTTSNLWGQGTQVTVSS , thanks.
## Result 138000

## Task Queued: A4-072 (VHH) VHH: VQLQESGGGLAQPGGSLRLSCAASGSSFVINTMGWYRQAPGKQREFVATVTRGGSTNYGEFVKGRFTISRDNAKNTVYLQMNSLRPEDTAVYYCHVDELRQSSWTTSNLWGQGTQVTVSS
## Result 16300

## Task Another binder to check: A4-063 (VHH) VHH: VQLQESGGGLVQPGGSLRLSCAASGRRFTINTMGWYRRAPGKQRELVATITRGGSTNYAGSVKGRFTISRDNPKNTVYLQMNSLRPEDTAVYYCHIDEVRQSSWTTSNLWGQGTQVTVSS
## Result 14800

## Task # iterate: A4-058 (VHH) VHH: VQLQESGGGLVQPGGSLRLSCAASGSIFSINTMGWYRQAPAKQREIVATVTRDGSTNYAESVKGRFTISRDNAKNTVYLQMNSLRPEDTAVYYCHLDEVRQSTWTTSNLWGQGTQVTVSS
## Result 51800
